B1: ACBD3 (parent)
chain: YVASHKIEKEEQEKKRKEEEERRR

Variants of: B1
Assay: protein stability index of a GFP-peptide fusion (GPS, HEK-293T) (PSI 1-6); higher = more stable;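 further: lentivirally expressed fusions sorted by FACS into six bins by GFP to DsRed ratio, PSI derived from sequencing read proportions per bin multiplied by bin number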
Settings: c terminus: a fixed tail appended
ENDPOINT NAME: protein stability index
Respond numerically, and do not add a unit to the figure.

For orientation, consider the following solved cases.
- VARIANT DESIGNATION: "E13M"
  protein stability index: 2.04
- VARIANT DESIGNATION: "R16S"
  protein stability index: 2.65
- VARIANT DESIGNATION: "E8I"
  protein stability index: 2.16
- VARIANT DESIGNATION: "R22C"
  protein stability index: 2.69

Moving on to another variant below.
Exercise: Quick check: protein stability index of E13S ?
Solution: 3.36

Just for reference, the supplement of paper PMC10567573 is where these values come from.
